- experimental-details: Half life in Swiss Webster male mouse at 12.5 mg/kg, ip
- Type: ADME, organism-based
- Parameters: dose 12.5 mg/kg, route intraperitoneal
- experimental-conditions: in vivo
endpoint-label: half-life (h)

{"columns": ["smiles-entry", "obs-value"],
 "data": [
  ["O=C1/C(=C/c2ccccn2)CNC/C1=C\\c1ccccn1", 2.2]
]}

* * *

- experimental-details: Tmax in CD1 male mouse at 50 mg/kg, po
- Format: ADME, organism-based
- Set-up: dose 50 mg/kg, route oral
- experimental-conditions: in vivo

{"columns": ["smiles-entry", "readout-units", "Tmax"],
 "data": [
  ["CN1C/C(=C\\c2ccccn2)C(=O)/C(=C/c2ccccn2)C1", "min", 30]
]}
